System: CXF HCC-2998
test: CellTiter-Blue Cell Viability Assay (Example 2), colon
Format: cell-based, human
experimental-conditions: read-out: Relative IC50
measured-attribute: IC50

Form field IC50, entry CC(C)(O)Cn1nc(-c2ccccc2)c2c(Cl)c(-c3ccccc3)nnc21 : 765 nM
